B1: FBXO3 (parent)
chain: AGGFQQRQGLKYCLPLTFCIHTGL

Variants of: B1
Experiment: protein stability index of a GFP-peptide fusion (GPS, HEK-293T) (PSI 1-6); higher = more stable;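 also: lentivirally expressed fusions sorted by FACS into six bins by GFP to DsRed ratio, PSI derived from sequencing read proportions per bin multiplied by bin number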
Conditions: c terminus: a fixed tail appended
// class 0 strictly below 3 in protein stability index; class 1 otherwise

Example results:
Q8H :: class 0
Y12K :: class 0
C19F :: class 0
K11E :: class 0
K11N :: class 0
C19S :: class 0
F18Q :: class 0
L10D :: class 0
I20V :: class 0
C19K :: class 0

API: above_or_equal(metric=protein stability index, cutoff=3) for item Q5Y class 1

API: above_or_equal(metric=protein stability index, cutoff=3) for item R7E class 0

API: above_or_equal(metric=protein stability index, cutoff=3) for item Y12I class 0
